The entries below pair compounds with pIC50 values for NAMPT (Homo sapiens), as found in several publications.
Give bare numbers, as −log10 of the molar value.

Consider the reported pIC50 for these compounds:
{"columns": ["compound", "target", "observation type", "observed measurement"],
 "data": [
  ["O=C(NCc1ccc2nccn2c1)c1cnc(N(CC2CCCO2)C(=O)Cc2cscn2)s1 (stereo not shown)", "NAMPT (Homo sapiens)", "pIC50", 8.22],
  ["O=C(NCc1ccn2ccnc2c1)c1ccc(C2CN(C(=O)c3cccc(OC(F)(F)F)c3)C2)cc1", "NAMPT (Homo sapiens)", "pIC50", 9.09],
  ["CC(C)(C)OC(=O)N1CC=C(c2ccc(NC(=O)NCc3ccn4ccnc4c3)c(F)c2)CC1", "NAMPT (Homo sapiens)", "pIC50", 9.02],
  ["O=C(Nc1ccc(C2CCN(C(=O)C3CCOCC3)CC2)cc1)C1CN(c2ccnnc2)C1", "NAMPT (Homo sapiens)", "pIC50", 6.96],
  ["Cc1nc(CC(=O)N(CC2CCCO2)c2ncc(C(=O)NCc3ccc4nccn4c3)s2)cs1 (stereo not shown)", "NAMPT (Homo sapiens)", "pIC50", 8.67],
  ["O=C(NC1(c2ccc(C(=O)NCc3ccn4ccnc4c3)s2)CCC1)c1ccccc1", "NAMPT (Homo sapiens)", "pIC50", 9.33],
  ["CC(C)CCNc1ncc(C(=O)NCc2ccc3nccn3c2)s1", "NAMPT (Homo sapiens)", "pIC50", 8.87],
  ["O=C(NCc1ccn2ccnc2c1)c1ccc(O[C@@H]2CCN(C(=O)[C@H]3CCOC3)C2)cc1", "NAMPT (Homo sapiens)", "pIC50", 9.15],
  ["CC(=O)N[C@@H](CC(C)C)C(=O)N1CCC(c2ccc(NC(=O)C3CN(c4cccnc4C)C3)cc2)CC1", "NAMPT (Homo sapiens)", "pIC50", 6.91],
  ["CC(C)OCCCNC(=O)N(Cc1ccc(C#N)cc1)c1ncc(C(=O)NCCCn2ccnc2)s1", "NAMPT (Homo sapiens)", "pIC50", 8.89]
]}

State recorded pIC50 for all listed compounds.
1. COCCOCC(=O)Nc1ccc(NC(=O)Nc2ccc3nccn3c2)cc1
2. O=C(NCc1ccn2ccnc2c1)c1ccc(C2CCN(C(=O)c3cccc(OC(F)(F)F)c3)C2)cc1 (stereo not shown)
3. O=C(NCCCn1ccnc1)c1cnc(N2CCN(CCO)C2=O)s1

1: 9.42; 2: 9.12; 3: 7.87
